Tested on: HL-60
assay.comment: Antiproliferative activity against human HL60 cells assessed as cell viability at 10 ug/ml after 4 hrs by MTT assay
Assay type: functional
settings: HL-60, 4 h, read-out: Activity
reported.property: viability at 10 µg/mL (%)

1. CC/C(=C(/c1ccc(Br)cc1)c1ccc(OCCN(C)C)cc1)c1ccccc1 = 13.2
2. CC/C(=C(\c1ccc(I)cc1)c1ccc(OCCN2CCCC2)cc1)c1ccccc1 = 25.5
3. CC/C(=C(/c1ccc(OCCN(C)C)cc1)c1cccc(I)c1)c1ccccc1 = 97.2
4. CC/C(=C(\c1ccccc1)c1ccc(OCCN(C)C)cc1)c1ccccc1 = 15.9
